Provide the recorded pre-steady-state target cleavage rate for the entries that follow.
test system: EfPiwi piRISC loaded with L1MC piRNA (26 nt); experiment: pre-steady-state target cleavage rate (min^-1); auxiliary factor: 500 nM Ephydatia muelleri Gtsf1; guide: L1MC piRNA 5'p-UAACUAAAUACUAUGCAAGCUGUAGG; higher = faster piRNA-guided slicing of the target
Answers are plain numbers.

# count of solved cases: 8
chain: UCCUGGAACAGCUUGCAUAGUAUUUAGUUU [g2:g23:cont:t1U]
pre-steady-state target cleavage rate: 0.0156

chain: UCCUCCUACAGCUUGACAUAGUAUUUAGUUA
pre-steady-state target cleavage rate: 0.016

chain: UCCUGGUACAGCUUGCAAAGUAUUUUCAAA
pre-steady-state target cleavage rate: 0.00424

chain: UCCUGGUACAGCUAGCAUAGUAUUUUGUUA
pre-steady-state target cleavage rate: 0.00396

chain: UCCUGGAACAGCUUGCAAAGUAAUUAGUUA
pre-steady-state target cleavage rate: 0.00403

chain: UCCUGGAACAGCUUGCAUAGUAUUUAGAUUA
pre-steady-state target cleavage rate: 0.00539

chain: UCCUGGUACAGCUUGCUUAGUUUUUAGUUA
pre-steady-state target cleavage rate: 0.00346

chain: UCCUGGUACAGCAUGCAUAGUAUUUAGUUA
pre-steady-state target cleavage rate: 0.0111

Give pre-steady-state target cleavage rate for all sequences that follow.
1. UCCUGCUACACGUUGCAUAGUAUUUAGUAA
2. UCCUGGUACAGCUUGUCAUAGUAUUUAGUUA
3. UCCUGGAUGUGCUUACAUAGUAUUUAGUUA
4. UCCUCGAACAGCUUGCAUAGUAUUUUCAAA
5. UCCUGCUACAGCUUGCAUAGUAUUAAGUAA
6. UCCUCCUAGAGCUUGCAUAGUAAUUAGUUA

[0.00458, 0.00651, 0.0113, 0.00321, 0.00315, 0.011]

Give pre-steady-state target cleavage rate for all sequences that follow.
1. UCCUGCUACAGCUUGGAUAGUAUUUAGAAA
2. UCCUCCUACAGCUUGCAUAGUAUUUAGAUUA
3. UCCUCCUACAGCUUGCAUGUAUUUAGUUA
4. UCCUGGAUGAGCUUGCAUAGUUUUUAGUUA

1. 0.00242
2. 0.0103
3. 0.00924
4. 0.00485

###

system: MILI (PIWIL2) piRISC loaded with L1MC piRNA (26 nt); assay: pre-steady-state target cleavage rate (min^-1); guide: L1MC piRNA 5'p-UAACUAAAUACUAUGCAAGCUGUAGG; MIWI and MILI are mouse PIWI proteins and EfPiwi is from a freshwater sponge; tags in brackets are library labels; higher = faster piRNA-guided slicing of the target; conditions: auxiliary factor: 500 nM mouse GTSF1;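 further: 1 nM active piRISC with 0.1 nM target library at 33 °C single turnover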
Provide the recorded pre-steady-state target cleavage rate for the entries that follow.
Numbers only.

chain: UCCUGCUACAGCUAGCAUAGUAUUUACAAA
pre-steady-state target cleavage rate: 0.0708

chain: UCCUGGAUGUCGAAGCAUAGUAUUCUAGUUA
pre-steady-state target cleavage rate: 0.0193

Give pre-steady-state target cleavage rate for all sequences that follow.
1. UCCUCCUACAGCUUGCAUAGUAAUUAGUAA
2. UCCUGCUACAGCUUGCAUAGUAUAUAGUAA

1: 0.141; 2: 0.0474

Give pre-steady-state target cleavage rate for all sequences that follow.
1. UCCUCCUACAGCUUGCAUGGUAUUUAGUUA
2. UCCUGGAACAGCUUGCAUAGUAUUUAAUUA
3. UCCUGGUACAGCUUGAAUAGUAUUUAGUUA

0.413
0.102
0.302
